The following compounds are listed with their measured Tmax Median values.
test description: Pharmacokinetics of released PEGylated protease inhibitor following P.O. administration of prodrugs in rats
Assay type: in vivo, male Sprague-Dawley rats
test parameters: mPEG5-atazanavir in plasma after PO administration of mPEG5-ATV or of the listed prodrug, rats (n = 4-5)
observable: Tmax Median (h)

| compound | observable | endpoint result |
| --- | --- | --- |
| COCCOCCOCCOCCOCCOC(=O)NC(C(=O)NC(Cc1ccccc1)C(CN(Cc1ccc(-c2ccccn2)cc1)NC(=O)C(NC(=O)OC)C(C)(C)C)OC(=O)COCCOC(=O)C(N)Cc1ccccc1)C(C)(C)C.Cl (stereo not drawn) [mPEG5-Atazanavir-CME-phenylalanine HCl] | Tmax Median | 12.0 |
| COCCOCCOCCOCCOCCOC(=O)NC(C(=O)NC(Cc1ccccc1)C(CN(Cc1ccc(-c2ccccn2)cc1)NC(=O)C(NC(=O)OC)C(C)(C)C)OC(=O)CNC(=O)C(N)CC(C)C)C(C)(C)C.Cl (stereo not drawn) [Leu-Gly-mPEG5-Atazanavir HCl, Leu-Gly-mPEG5-Atazanavir Hydrochloride] | Tmax Median | 12.0 |
| COCCOCCOCCOCCOCCOC(=O)NC(C(=O)NC(Cc1ccccc1)C(CN(Cc1ccc(-c2ccccn2)cc1)NC(=O)C(NC(=O)OC)C(C)(C)C)OCOC)C(C)(C)C (stereo not drawn) [mPEG5-Atazanavir-methyl methyl ether, mPEG5-Atazanavir Methyl Methyl Ether] | Tmax Median | 2.00 |

---

test description: Pharmacokinetics of PEGylated protease inhibitor prodrugs in rats
Type: in vivo, male Sprague-Dawley rats
test parameters: male, Sprague-Dawley, rat, in vivo, prodrug in plasma
Structures can show the parent of a compound that is named as a salt.
observable: MRT last

| compound | observable | endpoint result |
| --- | --- | --- |
| COCCOCCOCCOC(=O)N[C@H](C(=O)N[C@@H](Cc1ccccc1)[C@H](CN(Cc1ccc(-c2ccccn2)cc1)NC(=O)[C@@H](NC(=O)OC)C(C)(C)C)OC(=O)[C@H](Cc1ccccc1)NC(=O)[C@@H](N)C(C)C)C(C)(C)C [Val-Phe-mPEG3-Atazanavir, Val-Phe-mPEG3-Atazanavir Hydrochloride] | MRT last | 1.68 h |
| COCCOCCOCCOCCOCCOC(=O)N[C@H](C(=O)N[C@@H](Cc1ccccc1)[C@H](CN(Cc1ccc(-c2ccccn2)cc1)NC(=O)[C@@H](NC(=O)OC)C(C)(C)C)OC(=O)CNC(=O)[C@@H](N)Cc1ccccc1)C(C)(C)C [Phe-Gly-mPEG5-Atazanavir HCl, Phe-Gly-mPEG5-Atazanavir Hydrochloride] | MRT last | 0.357 h |
| COCCOCCOCCOC(=O)N[C@H](C(=O)N[C@@H](Cc1ccccc1)[C@H](CN(Cc1ccc(-c2ccccn2)cc1)NC(=O)[C@@H](NC(=O)OC)C(C)(C)C)OC(=O)[C@H](Cc1ccccc1)NC(=O)[C@@H](N)CC(C)C)C(C)(C)C.Cl [Leu-Phe-mPEG3-Atazanavir, Leu-Phe-mPEG3-Atazanavir Hydrochloride] | MRT last | 3.42 h |
| COCCOCCOCCOCCOCCOC(=O)N[C@H](C(=O)N[C@@H](Cc1ccccc1)[C@H](CN(Cc1ccc(-c2ccccn2)cc1)NC(=O)[C@@H](NC(=O)OC)C(C)(C)C)OC(=O)CNC(=O)[C@@H](N)CC(C)C)C(C)(C)C [Leu-Gly-mPEG5-Atazanavir HCl, Leu-Gly-mPEG5-Atazanavir Hydrochloride] | MRT last | 2.85 h |
| COCCOCCOCCOCCOCCOC(=O)N[C@H](C(=O)N[C@@H](Cc1ccccc1)[C@H](CN(Cc1ccc(-c2ccccn2)cc1)NC(=O)[C@@H](NC(=O)OC)C(C)(C)C)OC(=O)[C@H](CC(C)C)NC(=O)[C@@H](N)CC(C)C)C(C)(C)C.Cl [Leu-Leu-mPEG5-Atazanavir HCl, Leu-Leu-mPEG5-Atazanavir Hydrochloride] | MRT last | 3.59 h |
| COCCOCCOCCOC(=O)N[C@H](C(=O)N[C@@H](Cc1ccccc1)[C@H](CN(Cc1ccc(-c2ccccn2)cc1)NC(=O)[C@@H](NC(=O)OC)C(C)(C)C)OC(=O)[C@H](Cc1ccccc1)NC(=O)[C@@H](N)Cc1ccccc1)C(C)(C)C [Phe-Phe-mPEG3-Atazanavir, Phe-Phe-mPEG3-Atazanavir Hydrochloride] | MRT last | 6.27 h |
| COCCOCCOCCOCCOCCOC(=O)N[C@H](C(=O)N[C@@H](Cc1ccccc1)[C@H](CN(Cc1ccc(-c2ccccn2)cc1)NC(=O)[C@@H](NC(=O)OC)C(C)(C)C)OC(=O)CNC(=O)[C@@H](N)C(C)C)C(C)(C)C [Val-Gly-mPEG5-Atazanavir HCl, Val-Gly-mPEG5-Atazanavir Hydrochloride] | MRT last | 0.779 h |
| COCCOCCOCCOCCOCCOC(=O)N[C@H](C(=O)N[C@@H](Cc1ccccc1)[C@H](CN(Cc1ccc(-c2ccccn2)cc1)NC(=O)[C@@H](NC(=O)OC)C(C)(C)C)OC(=O)[C@H](CC(C)C)NC(=O)[C@@H](N)Cc1ccccc1)C(C)(C)C [Phe-Leu-mPEG5-Atazanavir HCl, Phe-Leu-mPEG5-Atazanavir Hydrochloride] | MRT last | 1.46 h |

---

test description: Pharmacokinetics of released PEGylated protease inhibitor following P.O. administration of prodrugs in rats
Assay type: in vivo, male Sprague-Dawley rats
test parameters: mPEG3-atazanavir in plasma after PO administration of mPEG3-ATV or of the listed prodrug, rats (n = 4-5)
Would you mind labelling by Tmax* Median? At or over 60 min is yes, under is no.

| compound | assigned class |
| --- | --- |
| COCCOCCOCCOC(=O)NC(C(=O)NC(Cc1ccccc1)C(CN(Cc1ccc(-c2ccccn2)cc1)NC(=O)C(NC(=O)OC)C(C)(C)C)OC(=O)C(N)C(C)C)C(C)(C)C.Cl [mPEG3-ATV-L-valine, mPEG3-Atazanavir-L-valine HCl] | no |
| CCC(=O)OC(CN(Cc1ccc(-c2ccccn2)cc1)NC(=O)C(NC(=O)OC)C(C)(C)C)C(Cc1ccccc1)NC(=O)C(NC(=O)OCCOCCOCCOC)C(C)(C)C (stereo not shown) [C2H5CO-mPEG3-ATV, mPEG3-Atazanavir Propionate] | no |
| COCCOCCOCCOC(=O)NC(C(=O)NC(Cc1ccccc1)C(CN(Cc1ccc(-c2ccccn2)cc1)NC(=O)C(NC(=O)OC)C(C)(C)C)OC(=O)CCCC(=O)OC1C(O)C(O)OC1C(O)CO)C(C)(C)C (stereo not shown) | no |
| CCCCC(=O)OC(CN(Cc1ccc(-c2ccccn2)cc1)NC(=O)C(NC(=O)OC)C(C)(C)C)C(Cc1ccccc1)NC(=O)C(NC(=O)OCCOCCOCCOC)C(C)(C)C (stereo not shown) | yes |
| CCCCCC(=O)O[C@@H](CN(Cc1ccc(-c2ccccn2)cc1)NC(=O)[C@@H](NC(=O)OC)C(C)(C)C)[C@H](Cc1ccccc1)NC(=O)[C@@H](NC(=O)OCCOCCOCCOC)C(C)(C)C [C5H11CO-mPEG3-ATV, C5H11CO-mPEG3-atazanavir] | yes |
| CCCCCCCCCCCCCCCCOCC(COP(=O)(O)OC(CN(Cc1ccc(-c2ccccn2)cc1)NC(=O)C(NC(=O)OC)C(C)(C)C)C(Cc1ccccc1)NC(=O)C(NC(=O)OCCOCCOCCOC)C(C)(C)C)OC (stereo not shown) | no |

---

test description: Pharmacokinetics of PEGylated protease inhibitor prodrugs in rats
Type: in vivo, male Sprague-Dawley rats
Set-up: concentration or dose not given beside the values
test parameters: male, Sprague-Dawley, rat, oral, prodrug in plasma, mean ± SD

| smiles record | AUC, ng·h/mL |
| --- | --- |
| COCCOCCOCCOCCOCCOC(=O)N[C@H](C(=O)N[C@@H](Cc1ccccc1)[C@H](CN(Cc1ccc(-c2ccccn2)cc1)NC(=O)[C@@H](NC(=O)OC)C(C)(C)C)OC(=O)[C@@H](N)CC(C)C)C(C)(C)C | 487 |
| COCCOCCOCCOCCOCCOC(=O)N[C@@H](C(=O)N[C@@H](Cc1ccccc1)[C@H](CN(Cc1ccc(-c2ccccn2)cc1)NC(=O)[C@H](NC(=O)OC)C(C)(C)C)OC(=O)CCCC(=O)O[C@@H]1[C@@H](O)[C@@H](O)O[C@@H]1[C@H](O)CO)C(C)(C)C | 78.5 |

---

test description: Pharmacokinetics of released PEGylated protease inhibitor following P.O. administration of prodrugs in rats
Format: in vivo, male Sprague-Dawley rats
test parameters: mPEG5-atazanavir in plasma after PO administration of mPEG5-ATV or of the listed prodrug, rats (n = 4-5)
The following compounds are listed with their measured Tmax Median values.

| compound | Tmax Median / h |
| --- | --- |
| CCC(=O)OC(CN(Cc1ccc(-c2ccccn2)cc1)NC(=O)C(NC(=O)OC)C(C)(C)C)C(Cc1ccccc1)NC(=O)C(NC(=O)OCCOCCOCCOCCOCCOC)C(C)(C)C (centres unmarked) [C2H5CO-mPEG5-ATV, mPEG5-Atazanavir Propionate] | 0.750 |
| COCCOCCOCCOCCOCCOC(=O)NC(C(=O)NC(Cc1ccccc1)C(CN(Cc1ccc(-c2ccccn2)cc1)NC(=O)C(NC(=O)OC)C(C)(C)C)OC(=O)CNC(=O)C(N)Cc1ccccc1)C(C)(C)C.Cl (stereo not drawn) [Phe-Gly-mPEG5-Atazanavir HCl, Phe-Gly-mPEG5-Atazanavir Hydrochloride] | 12.0 |
| COCCOCCOCCOCCOCCOC(=O)N[C@H](C(=O)N[C@@H](Cc1ccccc1)[C@H](CN(Cc1ccc(-c2ccccn2)cc1)NC(=O)[C@@H](NC(=O)OC)C(C)(C)C)OC(=O)[C@H](Cc1ccccc1)NC(=O)[C@@H](N)Cc1ccccc1)C(C)(C)C.Cl [Phe-Phe-mPEG5-Atazanavir HCl, Phe-Phe-mPEG5-atazanavir hydrochloride] | 0.750 |
| COCCOCCOCCOCCOCCOC(=O)N[C@H](C(=O)N[C@@H](Cc1ccccc1)[C@H](CN(Cc1ccc(-c2ccccn2)cc1)NC(=O)[C@@H](NC(=O)OC)C(C)(C)C)OP(=O)(O)O)C(C)(C)C [mPEG5-ATV-phosphate, mPEG5-atazanavir phosphate] | 7.00 |
| COCCOCCOCCOCCOCCOC(=O)N[C@H](C(=O)N[C@@H](Cc1ccccc1)[C@H](CN(Cc1ccc(-c2ccccn2)cc1)NC(=O)[C@@H](NC(=O)OC)C(C)(C)C)OC(=O)[C@H](Cc1ccccc1)NC(=O)[C@@H](N)CC(C)C)C(C)(C)C.Cl [Leu-Phe-mPEG5-Atazanavir HCl, Leu-Phe-mPEG5-Atazanavir Hydrochloride] | 1.50 |
| CCCC(=O)OC(CN(Cc1ccc(-c2ccccn2)cc1)NC(=O)C(NC(=O)OC)C(C)(C)C)C(Cc1ccccc1)NC(=O)C(NC(=O)OCCOCCOCCOCCOCCOC)C(C)(C)C (centres unmarked) [C3H7CO-mPEG5-ATV, mPEG5-Atazanavir Butyrate] | 1.00 |
| COCCOCCOCCOCCOCCOC(=O)N[C@H](C(=O)N[C@@H](Cc1ccccc1)[C@H](CN(Cc1ccc(-c2ccccn2)cc1)NC(=O)[C@@H](NC(=O)OC)C(C)(C)C)OC(=O)[C@H](CC(C)C)NC(=O)[C@@H](N)CC(C)C)C(C)(C)C.Cl [Leu-Leu-mPEG5-Atazanavir HCl, Leu-Leu-mPEG5-Atazanavir Hydrochloride] | 0.750 |
| COCCOCCOCCOCCOCCOC(=O)NC(C(=O)NC(Cc1ccccc1)C(CN(Cc1ccc(-c2ccccn2)cc1)NC(=O)C(NC(=O)OC)C(C)(C)C)OC(=O)C(N)C(C)C)C(C)(C)C.Cl [mPEG5-ATV-L-valine, mPEG5-Atazanavir-L-valine HCl] | 1.00 |
| CCCCCC(=O)O[C@@H](CN(Cc1ccc(-c2ccccn2)cc1)NC(=O)[C@@H](NC(=O)OC)C(C)(C)C)[C@H](Cc1ccccc1)NC(=O)[C@@H](NC(=O)OCCOCCOCCOCCOCCOC)C(C)(C)C [C5H11CO-mPE5-ATV, C5H11CO-mPEG5-atazanavir] | 0.500 |
| COCCOCCOCCOCCOCCOC(=O)NC(C(=O)NC(Cc1ccccc1)C(CN(Cc1ccc(-c2ccccn2)cc1)NC(=O)C(NC(=O)OC)C(C)(C)C)OC(=O)COCCOC(=O)C(N)CC(C)C)C(C)(C)C.Cl (centres unmarked) [mPEG5-Atazanavir-CME-Leucine HCl, mPEG5-Atazanavir-CME-Leucine] | 9.00 |
| CCCCC(=O)O[C@@H](CN(Cc1ccc(-c2ccccn2)cc1)NC(=O)[C@@H](NC(=O)OC)C(C)(C)C)[C@H](Cc1ccccc1)NC(=O)[C@@H](NC(=O)OCCOCCOCCOCCOCCOC)C(C)(C)C | 0.750 |
| CCOC(C)OC(CN(Cc1ccc(-c2ccccn2)cc1)NC(=O)C(NC(=O)OC)C(C)(C)C)C(Cc1ccccc1)NC(=O)C(NC(=O)OCCOCCOCCOCCOCCOC)C(C)(C)C (mixture of isomers) | 1.50 |
| COCCOCCOCCOCCOCCOC(=O)N[C@H](C(=O)N[C@@H](Cc1ccccc1)[C@@H](O)CN(Cc1ccc(-c2ccccn2)cc1)NC(=O)[C@@H](NC(=O)OC)C(C)(C)C)C(C)(C)C | 0.750 |
| CCOC(CC)OC(CN(Cc1ccc(-c2ccccn2)cc1)NC(=O)C(NC(=O)OC)C(C)(C)C)C(Cc1ccccc1)NC(=O)C(NC(=O)OCCOCCOCCOCCOCCOC)C(C)(C)C (mixture of isomers) | 1.00 |
